# Measurement target: Human Factor D (Homo sapiens (Human))
# Sequence (P00746 26-253): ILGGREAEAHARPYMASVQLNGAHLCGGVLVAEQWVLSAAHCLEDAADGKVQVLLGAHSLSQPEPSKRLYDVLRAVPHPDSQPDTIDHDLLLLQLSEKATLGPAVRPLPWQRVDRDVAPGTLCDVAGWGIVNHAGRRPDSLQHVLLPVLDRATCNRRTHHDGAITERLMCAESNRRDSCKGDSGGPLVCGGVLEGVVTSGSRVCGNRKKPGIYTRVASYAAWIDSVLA
# Experimental details: Human Factor D Assay
# Format: biochemical
# Condition: Table 3; Human Factor D 80 nM, substrate Z-L-Lys-SBzl; read-out: IC50 (Stars)
pIC50: −log10 of the molar value.
Listed below: pIC50 values for each entry.

Record excerpt, results attached:
>  <Molecule>
CC(=O)c1nn(CC(=O)N2C[C@@](F)(CF)C[C@H]2C(=O)Nc2cccc(Br)n2)c2ccc(-c3cnc(C)nc3)cc12

>  <Measurement target>
Human Factor D (Homo sapiens (Human))

>  <Result>
> 6.00

$$$$
>  <Molecule>
CC(=O)c1nn(CC(=O)N2C[C@H](F)C[C@H]2C(=O)Nc2ccc(F)c(Br)n2)c2ccc(-c3cnc(C)nc3)cc12

>  <Measurement target>
Human Factor D (Homo sapiens (Human))

>  <Result>
> 6.00

$$$$
>  <Molecule>
CC(=O)c1nn(CC(=O)N2C[C@H](F)C[C@H]2C(=O)Nc2cc(C(F)(F)F)cc(Br)n2)c2ccc(-c3cnc(C)nc3)cc12

>  <Measurement target>
Human Factor D (Homo sapiens (Human))

>  <Result>
> 6.00

$$$$
>  <Molecule>
CC(=O)c1nn(CC(=O)N2C[C@H](F)C[C@H]2C(=O)Nc2nc(-c3ccccc3Cl)cs2)c2ccc(-c3cnc(C)nc3)cc12

>  <Measurement target>
Human Factor D (Homo sapiens (Human))

>  <Result>
< 5.00

$$$$
>  <Molecule>
COC[C@@]1(F)C[C@@H](C(=O)Nc2cccc(Br)n2)N(C(=O)Cn2nc(C(C)=O)c3cc(-c4cnc(C)nc4)ccc32)C1

>  <Measurement target>
Human Factor D (Homo sapiens (Human))

>  <Result>
> 6.00

$$$$
>  <Molecule>
CC(=O)c1nn(CC(=O)N2CC3CC2(C(=O)Nc2cccc(Br)n2)C3)c2ccc(-c3cnc(C)nc3)cc12

>  <Measurement target>
Human Factor D (Homo sapiens (Human))

>  <Result>
> 6.00

$$$$
>  <Molecule>
Cc1cccc(C[C@H](O)[C@@H]2C[C@@H](F)CN2C(=O)Cn2cc(C(N)=O)c3cc(-c4cnc(C)nc4)ccc32)n1

>  <Measurement target>
Human Factor D (Homo sapiens (Human))

>  <Result>
< 5.00

$$$$
>  <Molecule>
CNc1ncc(-c2ccc3c(c2)c(C(C)=O)nn3CC(=O)N2C[C@H](F)C[C@H]2C(=O)Nc2cccc(Br)n2)cn1

>  <Measurement target>
Human Factor D (Homo sapiens (Human))

>  <Result>
> 6.00

$$$$

Give the reported pIC50 for CC(=O)c1nn(CC(=O)N2[C@@H]3C[C@@H]3C[C@H]2C(=O)NC/C(F)=C(\C)c2ccccc2Cl)c2ccc(-c3cnc(C)nc3)cc12 (system: Human Factor D (Homo sapiens (Human))).
> 6.00

Same lookup for CC(=O)c1nn(CC(=O)N2[C@H](C(=O)Nc3cccc(Br)n3)C[C@@]3(C)C[C@@H]23)c2ccc(-c3cnc(C)nc3)cc12 , please.
> 6.00

Same lookup for CC(=O)c1nn(CC(=O)N2C[C@H](F)[C@@H](O)[C@H]2C(=O)Nc2cccc(Br)n2)c2ccc(-c3cnc(C)nc3)cc12 , please.
> 6.00

Quick one: CC(=O)c1nn(CC(=O)N2C[C@H](F)C[C@H]2C(=O)Nc2nc(Br)ccc2C2CC2)c2ccc(-c3cnc(C)nc3)cc12
> 6.00

Repeat with CC(=O)c1nn(CC(=O)N2C[C@H](F)C[C@H]2C(=O)NC2CCCC(C)(C)C2)c2ccc(-c3cnc(C)nc3)cc12 (stereo partly shown)
> 6.00
